Tested on: IGROV1
experimental details: NCI60 five-dose screen, Ovarian Cancer
Format: cell-based
measurement setup: Homo sapiens, IGROV-1; IGROV1, Ovarian Cancer; five-dose screen; read-out: GI50
reported metric: GI50 (µM)

molecule	scale unit	result
CC[C@]12C=CCN3CC[C@@]4(c5ccc(OC)cc5N(C)[C@H]4[C@@](O)(C(=O)OC)[C@@H]1OC(=O)CCC(=O)N1CCN(Cc4ccc(C(F)(F)F)cc4)CC1)[C@@H]32 [Compound 29]	µM	10.7
CCC12C=CCN3CCC4(c5cc(NC(=O)CN6CCN(c7ccc(C(F)(F)F)cc7)CC6)c(OC)cc5N(C)C4C(O)(C(=O)OC)C1OC(C)=O)C32 (centres unmarked) [Compound 17]	µM	10
CCC12C=CCN3CCC4(c5cc(NC(=O)CN6CCN(C(c7ccc(F)cc7)c7ccc(F)cc7)CC6)c(OC)cc5N(C)C4C(O)(C(=O)OC)C1OC(C)=O)C32 (centres unmarked) [Compound 20]	µM	7.94
CC[C@]12C=CCN3CC[C@@]4(c5ccc(OC)cc5N(C)[C@H]4[C@@](O)(C(=O)OC)[C@@H]1OC(=O)CCC(=O)N1CCN(C(c4ccc(F)cc4)c4ccc(F)cc4)CC1)[C@@H]32 [Compound 31]	µM	2.5
CC[C@]12C=CCN3CC[C@@]4(c5ccc(OC)cc5N(C)[C@H]4[C@@](O)(C(=O)OC)[C@@H]1OC(=O)CCC(=O)N1CCN(c4ccc(C(F)(F)F)cc4)CC1)[C@@H]32 [Compound 28]	µM	3.31

Cited source: paper PMC11277489
